molecular target: GRK6, recombinant full-length GST-tagged human protein (Homo sapiens, UniProt P43250); construct: Enzyme: 20 nM GRK6, recombinant full-length GST-tagged human protein; GST; experiment: GRK6 assay, IC50 determination (8-point concentration-response); format: biochemical; conditions: Series 1 (Table 11); 20 nM GRK6, ATP 12 μM (Km), Peptide 216 1 μM, incubation 7 h
Sequence (P43250 whole entry): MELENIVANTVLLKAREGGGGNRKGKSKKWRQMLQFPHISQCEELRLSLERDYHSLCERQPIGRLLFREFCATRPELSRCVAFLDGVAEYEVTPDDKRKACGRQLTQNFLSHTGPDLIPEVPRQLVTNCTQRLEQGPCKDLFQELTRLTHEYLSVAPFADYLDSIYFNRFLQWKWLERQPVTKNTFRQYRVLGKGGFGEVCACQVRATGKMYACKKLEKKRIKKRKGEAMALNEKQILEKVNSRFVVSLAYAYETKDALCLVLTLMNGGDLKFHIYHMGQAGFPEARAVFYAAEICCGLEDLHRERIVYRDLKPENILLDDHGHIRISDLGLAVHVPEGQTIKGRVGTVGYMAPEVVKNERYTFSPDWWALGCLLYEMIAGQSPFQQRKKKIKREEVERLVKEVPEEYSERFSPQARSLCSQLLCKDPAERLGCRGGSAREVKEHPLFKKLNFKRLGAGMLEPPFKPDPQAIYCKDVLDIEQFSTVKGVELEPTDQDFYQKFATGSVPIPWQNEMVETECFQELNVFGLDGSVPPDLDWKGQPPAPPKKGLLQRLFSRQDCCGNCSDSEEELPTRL
For each of the compounds below, state its pIC50.
# log scale: pIC50 equals minus log10 of the concentration in mol/L

Q: Given the entry O=C(O)CSc1nnc(-c2ccc(-c3cccc(OCc4cccc(C(F)(F)F)c4)c3)o2)[nH]1 , report its measured pIC50.
Result: 6.30

Q: Further, for COc1cc(Cl)cc(-c2ccc(-c3nnc(SCC(=O)O)[nH]3)o2)c1 ?
Result: 6.77

Q: Similarly, O=C(O)CSc1nnc(-c2ccc(-c3cccc(OCc4cccc([N+](=O)[O-])c4)c3)o2)[nH]1 ?
Result: 6.90

Q: Then what about the compound CCOc1ccc(-c2ccc(-c3nnc(SCC(=O)O)[nH]3)o2)cc1Cl ?
Result: 6.30

Q: Okay, and O=C(O)CSc1nnc(-c2ccc(-c3cccc(OCc4ccc(OC(F)(F)F)c(Cl)c4)c3)o2)[nH]1 ?
Result: 5.84

Q: Param item: O=C(O)CSc1nnc(-c2ccc(-c3ccc(C(=O)NC4CC4)cc3)o2)[nH]1
Result: 5.98

Q: Another compound to look at: NS(=O)(=O)c1cccc(-c2ccc(-c3nnc(SCC(=O)O)[nH]3)o2)c1
Result: 6.38

Q: Also O=C(O)CSc1nnc(-c2ccc(-c3ccc4nccnc4c3)o2)[nH]1 , if possible.
Result: 5.93

Q: Further, for O=C(O)CSc1nnc(-c2ccc(-c3ccc(C(F)(F)F)nc3)o2)[nH]1 ?
Result: 5.69

Q: Field entry: O=C(O)CSc1nnc(-c2ccc(-c3ccc[nH]3)o2)[nH]1
Result: 5.92

Q: Another compound: O=C(O)CSc1nnc(-c2ccc(-c3ccccc3C(F)(F)F)o2)[nH]1
Result: 5.51

Q: Try this compound next: O=C(O)CSc1nnc(-c2ccc(-c3ccc4[nH]cc(-c5ccccc5)c4c3)o2)[nH]1
Result: 7.10

Q: Entry CCCOc1ccc(-c2ccc(-c3nnc(SCC(=O)O)[nH]3)o2)cc1Cl please
Result: 6.51

Q: Then what about the compound O=C(O)CSc1nnc(-c2ccc(-c3cc4ccccc4o3)o2)[nH]1 ?
Result: 6.49

Q: Another: Nc1cc(-c2ccc(-c3nnc(SCC(=O)O)[nH]3)o2)ccn1
Result: 5.66

Q: And the next one, O=C(O)CSc1nnc(-c2ccc(Cn3c4ccccc4c4ccccc43)o2)[nH]1 ?
Result: 5.69

Q: Next compound up: COc1ccc2cc(-c3oc(-c4nnc(SCC(=O)O)[nH]4)cc3Br)ccc2c1
Result: 6.34
